# PROTOCOL TEXT: NCI Yeast Anticancer Drug Screen. Data for the rad50 strain (AID 155);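 note: 0% = growth of vehicle-only cultures of the same strain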
# CONDITION SET: S. cerevisiae rad50 strain growth inhibition; at 50.0 µM (retest, dose inferred, filed as 5.0); stronger effect = higher value
Compounds without any hit were thinned out: in the full panel of roughly 79,000, 15% have a hit.
Threshold check on growth inhibition: at or above 80% gives True, strictly below gives False.

For orientation, consider the following solved cases.
CC(=O)OC/C=C/CCCOC(C)=O: False
CC(=O)NNc1ccc(Cl)cc1[N+](=O)[O-]: False
CC1=C(C(=O)Nc2ccccc2)C(c2cccc3ccccc23)C(C(=O)Nc2ccccc2)=C(C)N1: False
O=C1C=CC(=O)C(c2ccc(Cl)cc2)=C1: True

We next turn to a different compound, shown below.
Task: Decide: growth inhibition of [O-]/[N+](O)=C\c1ccccn1 >= 80%?
Result: False

====

# PROTOCOL TEXT: NCI Yeast Anticancer Drug Screen. Data for the mec2-1 strain (AID 157)
# CONDITION SET: S. cerevisiae mec2-1 strain, at 50.0 µM
About 79,000 compounds went through this panel and 15% of them were active in at least one assay; those are over-represented in the sample as a whole. Active and inactive are the calls of the source. Rule as the data show it: active = growth inhibition above about 70%; inactive = the rest. *1 amine or outer side, *2 acyl side, *3 side chain or, on linkers, in order; H or OH if unused. Where a SMILES comes first, the peptide text is derived from it. Bridges are numbered along the chain shown (N, C = ends). Roman numbers before positions name the chains, in order. [ ]: non-standard residue; d: D form. Actinocin(9to1) = Cc1c2oc3c(C)ccc(C(=O)[*:1])c3nc-2c(C(=O)[*:2])c(N)c1=O; NMeV = CN[CH](C(=O)O)C(C)C; Pip = O=C(O)[CH]1CCCCN1; Sar = CNCC(=O)O
One label from this list, please: active, inactive

[N-]=[N+]=Nc1c(-c2ccccc2)c(=O)n(-c2ccccc2)c2ccccc12: active
Cc1cccc(Cc2ccc(Cl)cc2)c1O: active
CCN(CC)CCCCCCNc1cc(C)cc2cccnc12: inactive
CN(C)CCOC1(CC2CCCCC2)CCC(C(C)(C)C)CC1 (centres undefined): active
COc1ccc(C(=O)[O][Sn]([c]2ccccc2)([c]2ccccc2)[c]2ccccc2)c(OC)c1OC: active

Task: What call does the record list for CCCCCCCCCCCCCC/[N+]([O-])=C/c1ccc([N+](=O)[O-])o1 ?
Result: inactive

Task: What call does the record list for COc1ccc(-c2cc(C(=O)O)c3cccc(C(F)(F)F)c3n2)cc1 ?
Result: inactive

Task: What call does the record list for O=C1CNC(=O)c2cc(Cl)ccc2N1 ?
Result: inactive

Task: What call does the record list for CC1C(c2ccc(Cl)cc2)c2cc3c(cc2OC1N1CCOCC1)OCO3 (centres undefined) ?
Result: inactive

Task: What call does the record list for Fc1ccc(CSC(=S)Nc2cccc(C(F)(F)F)c2)cc1 ?
Result: active

Task: What call does the record list for CN(NC1OC(=O)c2ccccc21)c1ccc(C(F)(F)F)cc1[N+](=O)[O-] (centres undefined) ?
Result: inactive

Task: What call does the record list for CC1(C)CCN(CCOC(=O)C(c2ccccc2)C2C=CCCC2)C1 (centres undefined) ?
Result: inactive

Task: What call does the record list for CCCC(C(=O)OCCNC1CCCCC1)c1ccccc1 (centres undefined) ?
Result: inactive

Task: What call does the record list for CC1(CO)CCCC2(C)C1CCC1CC3C=CC12C1C(=O)OC(=O)C31 (centres undefined) ?
Result: inactive

Task: What call does the record list for Cc1c2oc3c(C)ccc(C(=O)NC4C(=O)NC(C(C)C)C(=O)N5CCCCC5C(=O)N(C)CC(=O)N(C)C(C(C)C)C(=O)OC4C)c3nc-2c(C(=O)NC2C(=O)NC(C(C)C)C(=O)N3CCCCC3C(=O)N(C)CC(=O)N(C)C(C(C)C)C(=O)OC2C)c(N)c1=O (centres undefined) (I: TV[Pip][Sar][NMeV] / II: TV[Pip][Sar][NMeV]; ester I:1-I:C, II:1-II:C; linker I:N-II:N via Actinocin(9to1); configuration not given here) ?
Result: inactive

Task: What call does the record list for COc1ccc2nc3cccc([N+](=O)[O-])c3c(NCCN(C)C)c2c1 ?
Result: active

Task: What call does the record list for Cc1cc(C)c([O-])c(-[n+]2c(-c3ccccc3)cc(-c3ccccc3)cc2-c2ccccc2)c1 ?
Result: active

Task: What call does the record list for CC(C)Cn1cnc2c(SCc3ccc(Cl)cc3Cl)nc(N)nc21 ?
Result: inactive

Task: What call does the record list for COc1ccc(CCBr)cc1 ?
Result: inactive

====

# PROTOCOL TEXT: NCI Yeast Anticancer Drug Screen. Data for the cln2 rad14 strain (AID 165);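 note: 0% = growth equal to vehicle treated cultures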
# CONDITION SET: S. cerevisiae cln2 rad14 strain, at 50.0 µM, stronger effect = higher value
This is part of a sample that, as a whole, favours compounds with a hit. Of some 79,000 tested, about 15% had one in any assay.
Threshold check on growth inhibition: at or above 20% gives 1, strictly below gives -1.

CCCCOC(=O)c1nc(N(CC2CCCCC2)C(=O)NC)sc1NC(=O)NC: -1
CN1C/C(=C\c2ccc(Cl)cc2)C(=O)/C(=C/c2ccc(Cl)cc2)C1: 1
COC(=S)S: -1
CCCCCCc1ccc(O)cc1O: 1
c1ccc([P+](C[P+](c2ccccc2)(c2ccccc2)c2ccccc2)(c2ccccc2)c2ccccc2)cc1: 1

Task: Decide: growth inhibition of Cc1nc2ccc(NCCN(C)C)c3c(=O)c4cc(O)ccc4n1c23 >= 20%?
Result: -1

Task: Decide: growth inhibition of O=C(CNCc1ccccc1)c1ccc(Cl)cc1 >= 20%?
Result: 1

====

# PROTOCOL TEXT: NCI Yeast Anticancer Drug Screen. Data for the sgs1 mgt1 strain (AID 161);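 note: 0% = growth of cultures given vehicle only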
# CONDITION SET: S. cerevisiae sgs1 mgt1 strain, at 50.0 µM, stronger effect = higher value
This is part of a sample that, as a whole, favours compounds with a hit. Of some 79,000 tested, about 15% had one in any assay.
Could you please report measured growth inhibition for the items listed next?
Numbers only, in %.

Worked cases, answers included:
O=C1C=CC(=O)N1c1ccc(Cl)cc1: 92.8
Cc1ccc(SC2=C(N(C)C)C(=O)c3ccccc3C2=O)cc1: 77.3
CCCCCCCCCCCCSC(=NCC)NCC: 48.8
O=C(O)C1CC[N-]CC1.O=C(O)C1CC[N-]CC1.[Cl][Pt+2]([Cl])([Cl])[Cl]: 94.1
O=S1(=O)C(Br)=Cc2ccccc21: 98.7

Need growth inhibition for each of these molecules.
1. CCCCc1c2c(nc3c1CC/C(=C\c1ccccc1)C3=O)CCCC2
2. O=S1(=O)CCc2ccccc2C(Br)C1Br (centres undefined)
3. C/C(=N\N=C(N)N)c1ccc2c(c1)Cc1cc(/C(C)=N/N=C(N)N)ccc1-2
4. CCOC(=O)c1c(O)c(C)c(=O)n2c1[nH]c1cc(C)c(C)cc12
5. O=Nc1c(O)c2ccccc2c2ccc([N+](=O)[O-])cc12

Result:
69.6
99.5
84.7
-6.5
91.7

Need growth inhibition for each of these molecules.
1. O=C1OC(c2ccccc2)N/C1=C\c1ccc2c(c1)OCO2 (centres undefined)
2. CC(C)Cn1cnc2c(SCc3ccc(Cl)cc3Cl)nc(N)nc21
3. COc1ccc(OC)c(CC(Cl)(C#N)C#N)c1

Result:
1. -8.55
2. 90.8
3. 99.7

Need growth inhibition for each of these molecules.
1. CCOc1ccc2c(c1)n([O-])c1cc(Br)ccc1[n+]2=O
2. CC1CCN(CCCOC(=O)c2ccccc2)CC1
3. O=[N+]([O-])c1ccc(CCCl)c(CCl)c1
4. Nc1nc(-c2ccc3c(c2)Sc2ccccc2O3)cs1
5. O=c1cc(Cl)c(Cl)nn1-c1ccccc1
6. COc1c2c(cc3ccc(=O)oc13)C(Cl)C(Cl)O2 (centres undefined)
7. C1=Nc2ccccc2/C1=C/c1ccccc1

Result:
[88.2, 62.1, 91, 91.3, 40.3, 92.8, 49.7]

====

# PROTOCOL TEXT: NCI Yeast Anticancer Drug Screen. Data for the rad50 strain (AID 155);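 note: 0% = growth of vehicle-only cultures of the same strain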
# CONDITION SET: S. cerevisiae rad50 strain growth inhibition; at 50.0 µM
This is part of a sample that, as a whole, favours compounds with a hit. Of some 79,000 tested, about 15% had one in any assay. The source made the active and inactive calls. Cut-off read from the data, not from the text of the source: active = growth inhibition above about 70%; inactive = the rest.
One label from this list, please: true (1) for active, false (0) for inactive

For orientation, consider the following solved cases.
CCCC/C=C1\CCC(CN2CCOCC2)C1=O (centres undefined): true (1)
CN(C)S(=O)(=O)c1cc(Cl)ccc1NN: false (0)
C/C(=C/CC1CCC2C3=CCC4CC(O)CCC4(C)C3CCC12C)C(C)C(C)C (centres undefined): true (1)
COC(=O)NNc1c([N+](=O)[O-])cnn(-c2ccccc2)c1=O: false (0)
CC(C)Cc1cc2c(cc1O)CCC1C2CC[C@@]2(C)C1CC[C@@H]2O (some centres undefined): true (1)

Task: What call does the record list for Clc1sc2ccccc2c1Cl ?
Result: false (0)

Task: What call does the record list for Cc1ccccc1Nc1nc(-c2ccccc2)nc(N)c1N=O ?
Result: false (0)

Task: What call does the record list for O=C1/C(=C/c2ccccc2)CN(C(=O)C(F)(F)F)C/C1=C\c1ccccc1 ?
Result: false (0)

Task: What call does the record list for CC1(C)c2ccccc2-c2nc3ccccc3cc2C1Br (centres undefined) ?
Result: false (0)
